pIC50 overview
- Test system: 242566-281-R-J2-PDC complex spheroid viability
- Assay Details: Anticancer human tumor 242566-281-R-J2-PDC patient-derived pancreatic carcinoma cell line growth inhibition [RAS]
- Condition Info: curve of first compound; second compound 0.0949 µM
pIC50: −log10 of the molar value.
Parameter: pIC50

compound="C[C@@H](NC(=O)c1ncnc(N)c1Cl)c1ncc(C(=O)Nc2cc(C(F)(F)F)c(Cl)cn2)s1 + CCn1c(-c2cc(N3CCN(C)CC3)cnc2C(C)OC)c2c3cc(ccc31)-c1csc(n1)CC(NC(=O)C1CC1C)C(=O)N1CCCC(N1)C(=O)OCC(C)(C)C2" tgt="242566-281-R-J2-PDC complex spheroid viability" parameter=pIC50 result="> 7.50"
compound="CC1(O)CCCC1n1c(=O)c(C(F)F)cc2cnc(NC3CCN(S(C)(=O)=O)CC3)nc21 (stereo not given) + CCn1c(-c2cc(N3CCN(C)CC3)cnc2C(C)OC)c2c3cc(ccc31)-c1csc(n1)CC(NC(=O)C1CC1C)C(=O)N1CCCC(N1)C(=O)OCC(C)(C)C2" tgt="242566-281-R-J2-PDC complex spheroid viability" parameter=pIC50 result="> 7.50"
compound="C=CC(=O)N1CCN(c2nc(OCC3CCCN3C)nc3c(F)c(-c4nc(N)cc(C)c4C(F)(F)F)c(Cl)cc23)C(C)C1 (stereo not given) + CCn1c(-c2cc(N3CCN(C)CC3)cnc2C(C)OC)c2c3cc(ccc31)-c1csc(n1)CC(NC(=O)C1CC1C)C(=O)N1CCCC(N1)C(=O)OCC(C)(C)C2" tgt="242566-281-R-J2-PDC complex spheroid viability" parameter=pIC50 result="> 8.50"
compound="CCc1c2c(nc3ccc(O)cc13)-c1cc3c(c(=O)n1C2)COC(=O)[C@]3(O)CC + CCn1c(-c2cc(N3CCN(C)CC3)cnc2C(C)OC)c2c3cc(ccc31)-c1csc(n1)CC(NC(=O)C1CC1C)C(=O)N1CCCC(N1)C(=O)OCC(C)(C)C2" tgt="242566-281-R-J2-PDC complex spheroid viability" parameter=pIC50 result="> 9.02"
compound="NC1c2ccccc2OC12CCN(c1cnc3c(N4CCCc5ncccc54)n[nH]c3n1)CC2 (stereo not given) + CCn1c(-c2cccnc2C(C)OC)c2c3cc(ccc31)N1CCOC(CC(NC(=O)C(C(C)C)N(C)C(=O)C3(F)CCN(C(=O)C#CC(C)(C)N(C)C)CC3)C(=O)N3CCCC(N3)C(=O)OCC(C)(C)C2)C1" tgt="242566-281-R-J2-PDC complex spheroid viability" parameter=pIC50 result=5.95
compound="O=C(c1ccc(F)c(F)c1Nc1ccc(I)cc1F)N1CC(O)([C@@H]2CCCCN2)C1 + CCn1c(-c2cc(N3CCN(C)CC3)cnc2C(C)OC)c2c3cc(ccc31)-c1csc(n1)CC(NC(=O)C1CC1C)C(=O)N1CCCC(N1)C(=O)OCC(C)(C)C2" tgt="242566-281-R-J2-PDC complex spheroid viability" parameter=pIC50 result="> 8.50"
compound="CC(C)n1nc(-c2ccc3oc(N)nc3c2)c2c(N)ncnc21 + CCn1c(-c2cccnc2C(C)OC)c2c3cc(ccc31)N1CCOC(CC(NC(=O)C(C(C)C)N(C)C(=O)C3(F)CCN(C(=O)C#CC(C)(C)N(C)C)CC3)C(=O)N3CCCC(N3)C(=O)OCC(C)(C)C2)C1" tgt="242566-281-R-J2-PDC complex spheroid viability" parameter=pIC50 result=7.69
compound="C=CC(=O)Nc1cc(Nc2nccc(-c3cn(C)c4ccccc34)n2)c(OC)cc1N(C)CCN(C)C + CCn1c(-c2cccnc2C(C)OC)c2c3cc(ccc31)N1CCOC(CC(NC(=O)C(C(C)C)N(C)C(=O)C3(F)CCN(C(=O)C#CC(C)(C)N(C)C)CC3)C(=O)N3CCCC(N3)C(=O)OCC(C)(C)C2)C1" tgt="242566-281-R-J2-PDC complex spheroid viability" parameter=pIC50 result=6.01
compound="CC(C)n1nc(-c2ccc3oc(N)nc3c2)c2c(N)ncnc21 + CCn1c(-c2cc(N3CCN(C)CC3)cnc2C(C)OC)c2c3cc(ccc31)-c1csc(n1)CC(NC(=O)C1CC1C)C(=O)N1CCCC(N1)C(=O)OCC(C)(C)C2" tgt="242566-281-R-J2-PDC complex spheroid viability" parameter=pIC50 result="> 9.50"
compound="CC(Nc1ccc2c(c1)OCCn1cc(N3C(=O)OCC3C(F)F)nc1-2)C(N)=O (stereo not given) + CCn1c(-c2cccnc2C(C)OC)c2c3cc(ccc31)N1CCOC(CC(NC(=O)C(C(C)C)N(C)C(=O)C3(F)CCN(C(=O)C#CC(C)(C)N(C)C)CC3)C(=O)N3CCCC(N3)C(=O)OCC(C)(C)C2)C1" tgt="242566-281-R-J2-PDC complex spheroid viability" parameter=pIC50 result=6.06
compound="C=CC(=O)Nc1cc(Nc2nccc(-c3cn(C)c4ccccc34)n2)c(OC)cc1N(C)CCN(C)C + CCn1c(-c2cc(N3CCN(C)CC3)cnc2C(C)OC)c2c3cc(ccc31)-c1csc(n1)CC(NC(=O)C1CC1C)C(=O)N1CCCC(N1)C(=O)OCC(C)(C)C2" tgt="242566-281-R-J2-PDC complex spheroid viability" parameter=pIC50 result="> 8.50"
compound="NC1c2ccccc2OC12CCN(c1cnc3c(N4CCCc5ncccc54)n[nH]c3n1)CC2 (stereo not given) + CCn1c(-c2cc(N3CCN(C)CC3)cnc2C(C)OC)c2c3cc(ccc31)-c1csc(n1)CC(NC(=O)C1CC1C)C(=O)N1CCCC(N1)C(=O)OCC(C)(C)C2" tgt="242566-281-R-J2-PDC complex spheroid viability" parameter=pIC50 result="> 7.50"
compound="CCN1CCN(Cc2ccc(Nc3ncc(F)c(-c4cc(F)c5nc(C)n(C(C)C)c5c4)n3)nc2)CC1 + CCn1c(-c2cccnc2C(C)OC)c2c3cc(ccc31)N1CCOC(CC(NC(=O)C(C(C)C)N(C)C(=O)C3(F)CCN(C(=O)C#CC(C)(C)N(C)C)CC3)C(=O)N3CCCC(N3)C(=O)OCC(C)(C)C2)C1" tgt="242566-281-R-J2-PDC complex spheroid viability" parameter=pIC50 result="< 6.00"
compound="CC(=O)OC12COC1CC(O)C1(C)C(=O)C(O)C3=C(C)C(OC(=O)C(O)C(NC(=O)OC(C)(C)C)c4ccccc4)CC(O)(C(OC(=O)c4ccccc4)C21)C3(C)C (stereo not given) + CCn1c(-c2cc(N3CCN(C)CC3)cnc2C(C)OC)c2c3cc(ccc31)-c1csc(n1)CC(NC(=O)C1CC1C)C(=O)N1CCCC(N1)C(=O)OCC(C)(C)C2" tgt="242566-281-R-J2-PDC complex spheroid viability" parameter=pIC50 result="> 7.50"
compound="Nc1ccn(C2OC(CO)C(O)C2(F)F)c(=O)n1 (stereo not given) + CCn1c(-c2cccnc2C(C)OC)c2c3cc(ccc31)N1CCOC(CC(NC(=O)C(C(C)C)N(C)C(=O)C3(F)CCN(C(=O)C#CC(C)(C)N(C)C)CC3)C(=O)N3CCCC(N3)C(=O)OCC(C)(C)C2)C1" tgt="242566-281-R-J2-PDC complex spheroid viability" parameter=pIC50 result=7.12

====

# viability, T/C per record follows
- Tested on: 242566-281-R-J2-PDC complex spheroid viability
- Assay Details: Anticancer human tumor 242566-281-R-J2-PDC cell line growth inhibition [RAS];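 note: spheroids exposed to compound for 7 days before readout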;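 for viability, T/C: 100% = DMSO vehicle control wells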
- Condition Info: second compound 0.00949 µM; first compound 0.00949 µM; stronger effect = lower value
Parameter: viability, T/C (%)

molecule="CCc1c2c(nc3ccc(O)cc13)-c1cc3c(c(=O)n1C2)COC(=O)[C@]3(O)CC + CCn1c(-c2cc(N3CCN(C)CC3)cnc2C(C)OC)c2c3cc(ccc31)-c1csc(n1)CC(NC(=O)C1CC1C)C(=O)N1CCCC(N1)C(=O)OCC(C)(C)C2" units_of_measure=% numeric_value=38.8
molecule="CC1(C)CCC(Nc2ncc(C(F)(F)F)c(-c3c[nH]c4c(P(C)(C)=O)c(C#N)ccc34)n2)CN1 (centres undefined) + CCn1c(-c2cccnc2C(C)OC)c2c3cc(ccc31)N1CCOC(CC(NC(=O)C(C(C)C)N(C)C(=O)C3(F)CCN(C(=O)C#CC(C)(C)N(C)C)CC3)C(=O)N3CCCC(N3)C(=O)OCC(C)(C)C2)C1" units_of_measure=% numeric_value=92.3
molecule="CCc1c2c(nc3ccc(O)cc13)-c1cc3c(c(=O)n1C2)COC(=O)[C@]3(O)CC + CCn1c(-c2cccnc2C(C)OC)c2c3cc(ccc31)N1CCOC(CC(NC(=O)C(C(C)C)N(C)C(=O)C3(F)CCN(C(=O)C#CC(C)(C)N(C)C)CC3)C(=O)N3CCCC(N3)C(=O)OCC(C)(C)C2)C1" units_of_measure=% numeric_value=68.5
molecule="CC1(C)CCC(Nc2ncc(C(F)(F)F)c(-c3c[nH]c4c(P(C)(C)=O)c(C#N)ccc34)n2)CN1 (centres undefined) + CCn1c(-c2cc(N3CCN(C)CC3)cnc2C(C)OC)c2c3cc(ccc31)-c1csc(n1)CC(NC(=O)C1CC1C)C(=O)N1CCCC(N1)C(=O)OCC(C)(C)C2" units_of_measure=% numeric_value=45.5
